TARGET SYSTEM: CPXV ortholog of D8 (cowpox virus)
MEASUREMENT DESCRIPTION: cell-based or functional assay
QUANTITY KIND: PRNT IC50, CPXV MV+C' (mg/L)
Just the number please, in mg/L, no unit attached.

Q: Recorded PRNT IC50, CPXV MV+C' for VACV-304 (antibody, V domains shown) VH: EVQLVESGGGLVQPGGSLRLSCVVSGFTFSNYWMSWVRQAPGKGLEWVANIKQDGSKKYYVDSVTGRFTISRDNAKNSLYLQMNSLRAEDTAVYYCATLNLELAVDAISEALKWGQGTLVTVSS VL: SYELTQPPSVSVSPGQTARITCSGDALPKQFAYWYQQKPGQAPVVMIYKDSERPSGIPERFSGSSSGTTVTLTISGVQAEDEADYYCQSVDNSGTYEVFGGGTQLTVL , please?
Ans: 0.1
